# TESTED_SYSTEM: CCK-A (Rattus norvegicus, UniProt P30551)
# Sequence (P30551 1-444): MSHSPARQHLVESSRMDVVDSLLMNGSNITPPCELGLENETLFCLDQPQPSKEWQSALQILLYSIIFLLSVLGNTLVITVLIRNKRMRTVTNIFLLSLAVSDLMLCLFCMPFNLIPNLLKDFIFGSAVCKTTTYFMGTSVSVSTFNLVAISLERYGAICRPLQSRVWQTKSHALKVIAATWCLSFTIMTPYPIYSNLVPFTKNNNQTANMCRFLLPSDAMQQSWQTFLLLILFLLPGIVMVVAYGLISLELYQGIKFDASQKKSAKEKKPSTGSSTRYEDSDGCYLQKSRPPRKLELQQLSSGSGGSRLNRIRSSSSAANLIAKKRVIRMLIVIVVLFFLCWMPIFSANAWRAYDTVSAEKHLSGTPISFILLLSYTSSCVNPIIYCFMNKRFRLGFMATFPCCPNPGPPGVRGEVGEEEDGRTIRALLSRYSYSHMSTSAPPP
# TEST_PROTOCOL: biochemical
# Assay type: binding
# ASSAY_CONDITIONS: rat pancreas (CCK-A), 125I-CCK; read-out: CCK RECEPTOR BINDING RESULTS IC50 125I-CCK Pancreas
MEASURED_QUANTITY: IC50

CN1C(=O)C(NC(=O)Nc2cccc(F)c2)N=C(N2CC3CCC(CC3)C2)c2ccccc21 (racemic): 39.6 nM
Cc1cccc(NC(=O)NC2N=C(N(C)CCN3CCOCC3)c3ccccc3N(C)C2=O)c1 (racemic): > 3000 nM
Cc1cccc(NC(=O)NC2N=C(N(C)C3CCN(C)CC3)c3ccccc3N(C)C2=O)c1 (racemic): > 3000 nM
